assay_system: T1, Axl (Homo sapiens, UniProt P30530)
T1 sequence (P30530 26-451 limits assumed): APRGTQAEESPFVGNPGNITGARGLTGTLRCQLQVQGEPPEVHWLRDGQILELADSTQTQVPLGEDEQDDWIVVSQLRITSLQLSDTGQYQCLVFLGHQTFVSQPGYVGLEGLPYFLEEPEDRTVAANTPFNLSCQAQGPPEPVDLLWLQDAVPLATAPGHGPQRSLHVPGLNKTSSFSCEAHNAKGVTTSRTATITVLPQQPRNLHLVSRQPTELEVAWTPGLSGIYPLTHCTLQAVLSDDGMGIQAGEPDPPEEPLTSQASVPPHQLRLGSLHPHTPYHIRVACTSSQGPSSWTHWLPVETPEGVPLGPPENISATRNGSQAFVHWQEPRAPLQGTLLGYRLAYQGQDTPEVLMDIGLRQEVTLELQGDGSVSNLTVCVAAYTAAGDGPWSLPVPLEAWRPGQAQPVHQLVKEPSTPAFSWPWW
method_notes: Affinity ELISA of CPE mutant antibodies for binding to Axl at pH 6.0 over pH 7.4
recorded_conditions: heavy chain variable region mutants; 1:9 dilution
parameter: Affinity ELISA CPE mutant ratio (1:9, pH 6.0/7.4)
# respond with the number and nothing more

## Task Look up Affinity ELISA CPE mutant ratio (1:9, pH 6.0/7.4) for this molecule: HC-W110D (antibody, V domains shown) VH: EVQLVQSGAEVKKPGATVKISCKVSGYSFTGHTMNWIRQPPGKGLEWIGLIKPSNGGTSYNQKFKGRVTISADKSISTAYLQWSSLKASDTAMYYCAHGHYESYFAMDYDGQGTLVTVSS VL: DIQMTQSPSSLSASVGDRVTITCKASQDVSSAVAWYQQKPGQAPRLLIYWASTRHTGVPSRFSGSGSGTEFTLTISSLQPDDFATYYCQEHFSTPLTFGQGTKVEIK
## Result 1.112

## Task Moving on to HC-E102N (antibody, V domains shown) VH: EVQLVQSGAEVKKPGATVKISCKVSGYSFTGHTMNWIRQPPGKGLEWIGLIKPSNGGTSYNQKFKGRVTISADKSISTAYLQWSSLKASDTAMYYCAHGHYNSYFAMDYWGQGTLVTVSS VL: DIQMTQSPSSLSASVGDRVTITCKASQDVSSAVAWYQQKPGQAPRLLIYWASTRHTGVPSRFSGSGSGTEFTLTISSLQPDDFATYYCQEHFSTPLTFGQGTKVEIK
## Result 1.567

## Task Moving on to HC-F105S (antibody, V domains shown) VH: EVQLVQSGAEVKKPGATVKISCKVSGYSFTGHTMNWIRQPPGKGLEWIGLIKPSNGGTSYNQKFKGRVTISADKSISTAYLQWSSLKASDTAMYYCAHGHYESYSAMDYWGQGTLVTVSS VL: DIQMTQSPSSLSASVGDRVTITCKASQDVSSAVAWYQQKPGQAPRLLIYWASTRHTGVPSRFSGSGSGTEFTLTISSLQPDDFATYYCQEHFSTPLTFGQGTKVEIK
## Result 4.545

## Task Moving on to HC-E102M (antibody, V domains shown) VH: EVQLVQSGAEVKKPGATVKISCKVSGYSFTGHTMNWIRQPPGKGLEWIGLIKPSNGGTSYNQKFKGRVTISADKSISTAYLQWSSLKASDTAMYYCAHGHYMSYFAMDYWGQGTLVTVSS VL: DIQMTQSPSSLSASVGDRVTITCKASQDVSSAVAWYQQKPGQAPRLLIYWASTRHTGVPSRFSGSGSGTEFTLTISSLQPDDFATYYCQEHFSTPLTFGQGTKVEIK
## Result 2.363

## Task Moving on to HC-S103N (antibody, V domains shown) VH: EVQLVQSGAEVKKPGATVKISCKVSGYSFTGHTMNWIRQPPGKGLEWIGLIKPSNGGTSYNQKFKGRVTISADKSISTAYLQWSSLKASDTAMYYCAHGHYENYFAMDYWGQGTLVTVSS VL: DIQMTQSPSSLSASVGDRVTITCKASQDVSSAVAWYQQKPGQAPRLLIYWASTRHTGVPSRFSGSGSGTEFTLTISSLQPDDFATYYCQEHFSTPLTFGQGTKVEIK
## Result 3.179
